biological target: wild type MLL1 four-member complex (MLL1-4C) (Homo sapiens, UniProt Q03164); assay: MLL1 LC-MS assay; details: 30 nM MLL1-4C, 2.5 μM SAM, 10 μM H3K4me0; SAH production by LC-MS/MS; read-out: MLL1 LCMS
Assay Readout: IC50

The examples below pair each entry with its known result.
Compound: COC(=O)C(N)CCCOc1cc(Cl)cc(Cl)c1Cn1cnc2c(N)ncc(Cl)c21 (centres unmarked)
IC50: < 50 nM
//
Compound: CC(C)COC[C@H](N)CCCOc1ccc(Cl)c(Cl)c1Cc1cnn2c(N)ncnc12
IC50: > 100 nM
//
Compound: CCc1cc(Cl)cc(OCC[C@H](N)COC)c1Cn1cnc2c(N)ncnc21
IC50: > 100 nM
//
Compound: CC(C)c1nc(N)c2ncn(Cc3c(Cl)cc(Cl)cc3OCCC[C@@H](N)C(=O)O)c2n1
IC50: > 100 nM
//
Compound: CS(=O)(=O)NC(=O)[C@H](N)CCCOc1ccc(Cl)c(Cl)c1Cn1cnc2c(N)ncnc21
IC50: < 50 nM

**Q:** Short answer please: IC50, wild type MLL1 four-member complex (MLL1-4C) (Homo sapiens, UniProt Q03164), entry "Nc1ncnc2c1ncn2Cc1c(OCCC[C@@H](N)c2nnco2)ccc(Cl)c1Cl"
**A:** > 100 nM

**Q:** Short answer please: IC50, wild type MLL1 four-member complex (MLL1-4C) (Homo sapiens, UniProt Q03164), entry "CNC(=O)[C@H](N)CCCOc1ccc(Cl)c(Cl)c1Cn1cnc2c(N)ncnc21"
**A:** > 100 nM

**Q:** Short answer please: IC50, wild type MLL1 four-member complex (MLL1-4C) (Homo sapiens, UniProt Q03164), entry "NC(=O)[C@H](N)CCCOc1cc(Cl)cc(Cl)c1Cn1cnc2c(N)ncc(Cl)c21"
**A:** > 100 nM

----------
target: wild type MLL1 four-member complex (MLL1-4C) (Homo sapiens, UniProt Q03164); test: MLL1 LC-MS assay; settings: 30 nM MLL1-4C, 2.5 μM SAM, 10 μM H3K4me0; SAH production by LC-MS/MS; read-out: MLL1 LCMS
pIC50: −log10 of the molar value.
Below, each entry is listed with its recorded pIC50.

Compound: COCCNC(=O)[C@H](N)CCCOc1ccc(Cl)c(Cl)c1Cn1cnc2c(N)ncnc21 [Example 41]
pIC50: 7.00 to 7.30

Compound: Nc1ncnc2c1ncn2Cc1c(OCCC[C@@H](N)C(=O)NC2CC2)ccc(Cl)c1Cl [Example 42]
pIC50: > 7.30

Compound: COC[C@H](N)CCCOc1ccc(Cl)c(Cl)c1Cn1cnc2c(N)ncnc21 [Example 1]
pIC50: > 7.30

Compound: COC[C@H](N)CCCOc1ccc(Cl)c(Cl)c1Cn1cnc2c(N)ncc(Cl)c21 [Example 18]
pIC50: 7.00 to 7.30

Let us move to another entry and its pIC50.
**Q:** State the recorded pIC50 for this entry: COC[C@H](N)CCCOc1ccccc1Cc1cnc2c(N)ncnn12 [Example 7]
**A:** < 7.00

----------
molecular target: wild type MLL1 four-member complex (MLL1-4C) (Homo sapiens); assay: MLL1 LC-MS assay; conditions: 30 nM MLL1-4C, 2.5 μM SAM, 10 μM H3K4me0; SAH production by LC-MS/MS; read-out: MLL1 LCMS
pIC50: −log10 of the molar value.
Assay Readout: pIC50

The examples below pair each entry with its known result.
Substance Smiles: COC[C@H](N)CCCOc1ccc(Cl)c(Cl)c1Cc1cnn2c(N)ncnc12
pIC50: < 7.00

Substance Smiles: NC(=O)[C@H](N)CCCOc1ccc(Cl)c(Cl)c1Cn1cnc2c(N)ncnc21
pIC50: 7.00 to 7.30

Substance Smiles: COC[C@H](N)CCCOc1cccc(Cl)c1Cc1cnc2c(N)ncnn12
pIC50: < 7.00

Substance Smiles: COC[C@H](N)CCCOc1cccc(Br)c1Cc1cnn2c(N)ncnc12
pIC50: < 7.00

Substance Smiles: COC[C@H](N)CCCOc1c(Cl)cccc1Cc1cnn2c(N)ncnc12
pIC50: < 7.00

Substance Smiles: COC[C@H](N)CCCOc1ccccc1Cc1cnn2c(N)ncnc12
pIC50: < 7.00

Substance Smiles: CCOC(=O)[C@H](N)CCCOc1ccc(Cl)c(Cl)c1Cn1cnc2c(N)ncnc21
pIC50: > 7.30

Substance Smiles: Nc1ncnc2c(Cc3c(OCCC[C@@H](N)C(=O)NC4CC4)ccc(Cl)c3Cl)cnn12
pIC50: 7.00 to 7.30

**Q:** State the recorded pIC50 for this entry: "Nc1ncnc2c1ncn2Cc1c(OCCC[C@@H](N)c2nc[nH]n2)ccc(Cl)c1Cl"
**A:** > 7.30

----------
biological target: wild type MLL1 five-member complex (MLL1-5C) (Homo sapiens); test: MLL1 Flashplate assay; conditions: 2.5 nM MLL1-5C, 0.5 μM 3H-SAM, 1 μM H3K4me0; read-out: MLL1 flash plate
Assay Readout: IC50

The examples below pair each entry with its known result.
Substance Smiles: Nc1ncnc2c(Cc3c(OCCC[C@@H](N)C(=O)NC4CC4)ccc(Cl)c3Cl)cnn12
IC50: > 0.1 µM

Substance Smiles: Nc1ncnc2c1ncn2Cc1c(OCCC[C@@H](N)CO)ccc(Cl)c1Cl
IC50: 0.06 to 0.1 µM

Substance Smiles: COC[C@H](N)CCCOc1ccc(Cl)c(Cl)c1Cc1cnc2c(N)ncnn12
IC50: > 0.1 µM

Let us move to another entry and its IC50.
**Q:** State the recorded IC50 for this entry: "Nc1ncnc2c1ncn2Cc1c(OCCC[C@@H](N)C(=O)NC2CC2)ccc(Cl)c1Cl"
**A:** < 0.06 µM

----------
Below, each entry is listed with its recorded IC50.
molecular target: wild type MLL1 five-member complex (MLL1-5C) (Homo sapiens, UniProt Q03164); assay: MLL1 Flashplate assay; settings: 2.5 nM MLL1-5C, 0.5 μM 3H-SAM, 1 μM H3K4me0; read-out: MLL1 flash plate

The examples below pair each entry with its known result.
Substance Smiles: Nc1ncnc2c(Cc3c(OCCC[C@@H](N)CO)ccc(Cl)c3Cl)cnn12
Experimental System: wild type MLL1 five-member complex (MLL1-5C) (Homo sapiens, UniProt Q03164)
IC50: > 100 nM
--
Substance Smiles: COC[C@H](N)CCOc1cc(Cl)cc(Br)c1Cn1cnc2c(N)ncnc21
Experimental System: wild type MLL1 five-member complex (MLL1-5C) (Homo sapiens, UniProt Q03164)
IC50: > 100 nM
--
Substance Smiles: CCOC(=O)[C@H](N)CCCOc1ccc(Cl)c(Cl)c1Cn1cnc2c(N)ncnc21
Experimental System: wild type MLL1 five-member complex (MLL1-5C) (Homo sapiens, UniProt Q03164)
IC50: < 60 nM
--
Substance Smiles: Cc1nnc([C@H](N)CCCOc2ccc(Cl)c(Cl)c2Cn2cnc3c(N)ncnc32)s1
Experimental System: wild type MLL1 five-member complex (MLL1-5C) (Homo sapiens, UniProt Q03164)
IC50: < 60 nM
--
Substance Smiles: Nc1ncnc2c1ncn2Cc1c(OCCC[C@@H](N)C(=O)O)ccc(Cl)c1Cl
Experimental System: wild type MLL1 five-member complex (MLL1-5C) (Homo sapiens, UniProt Q03164)
IC50: < 60 nM

**Q:** State the recorded IC50 for this entry: "CC(C)COC[C@H](N)CCCOc1ccc(Cl)c(Cl)c1Cc1cnn2c(N)ncnc12"
**A:** > 100 nM

**Q:** State the recorded IC50 for this entry: "Nc1ncnc2c1ncn2Cc1c(OCCC[C@@H](N)c2nnco2)ccc(Cl)c1Cl"
**A:** 60 to 100 nM

**Q:** State the recorded IC50 for this entry: "COC[C@H](N)CCCOc1ccc(Cl)c(Cl)c1Cn1cnc2c(N)ncnc21"
**A:** < 60 nM

**Q:** State the recorded IC50 for this entry: "CCOC[C@H](N)CCCOc1ccc(Cl)c(Cl)c1Cc1cnn2c(N)ncnc12"
**A:** > 100 nM

**Q:** State the recorded IC50 for this entry: "COCCOC[C@H](N)CCCOc1ccc(Cl)c(Cl)c1Cn1cnc2c(N)ncnc21"
**A:** > 100 nM

**Q:** State the recorded IC50 for this entry: "CS(=O)(=O)NC(=O)[C@H](N)CCCOc1ccc(Cl)c(Cl)c1Cn1cnc2c(N)ncnc21"
**A:** < 60 nM

**Q:** State the recorded IC50 for this entry: "CN(C)C[C@H](N)CCCOc1ccc(Cl)c(Cl)c1Cn1cnc2c(N)ncnc21"
**A:** > 100 nM

**Q:** State the recorded IC50 for this entry: "COC[C@H](N)CCCOc1ccc(Cl)c(Cl)c1Cc1cnn2c(N)ncnc12"
**A:** > 100 nM

**Q:** State the recorded IC50 for this entry: "Nc1ncnn2c(Cc3c(OCCC[C@@H](N)C(=O)NC4CC4)ccc(Cl)c3Cl)cnc12"
**A:** < 60 nM

**Q:** State the recorded IC50 for this entry: "Nc1ncnc2c1ncn2Cc1c(OCCC[C@@H](N)c2nc[nH]n2)ccc(Cl)c1Cl"
**A:** < 60 nM

**Q:** State the recorded IC50 for this entry: "CN[C@H](CCCOc1cc(Cl)cc(Br)c1Cn1cnc2c(N)ncnc21)COC"
**A:** > 100 nM

**Q:** State the recorded IC50 for this entry: "CSC[C@H](N)CCCOc1ccc(Cl)c(Cl)c1Cn1cnc2c(N)ncnc21"
**A:** > 100 nM

**Q:** State the recorded IC50 for this entry: "COC[C@@H](N)CCOc1ccc(Cl)c(Cl)c1Cc1cnn2c(N)ncnc12"
**A:** > 100 nM

**Q:** State the recorded IC50 for this entry: "COC[C@H](N)CCCOc1cc2ccccc2cc1Cn1cnc2c(N)ncnc21"
**A:** > 100 nM

**Q:** State the recorded IC50 for this entry: "COC[C@H](N)CCCOc1ccc2cc(Br)ccc2c1Cn1cnc2c(N)ncnc21"
**A:** < 60 nM
